# Measured On: T1, chemokine receptor CCR3 (UniProt P51677 1-355, limits assumed)
# T1 construct: whole, on cells
# T1 sequence (looked up): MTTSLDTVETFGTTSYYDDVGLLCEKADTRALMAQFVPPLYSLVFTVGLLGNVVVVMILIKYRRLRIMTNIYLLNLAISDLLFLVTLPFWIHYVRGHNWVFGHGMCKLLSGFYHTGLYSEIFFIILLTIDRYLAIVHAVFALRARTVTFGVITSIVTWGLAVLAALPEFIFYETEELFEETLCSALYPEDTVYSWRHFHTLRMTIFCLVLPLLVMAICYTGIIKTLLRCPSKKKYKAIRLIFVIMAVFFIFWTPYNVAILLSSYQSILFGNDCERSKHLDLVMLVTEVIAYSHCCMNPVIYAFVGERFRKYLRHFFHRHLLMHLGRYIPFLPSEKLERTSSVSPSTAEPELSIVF
# Measurement Notes: competition with 125I-Eotaxin for binding to CCR3
Attribute Measured: pKi
Keep it numeric: pKi is minus log10 of the concentration in mol/L.

[ask] Returns the measured pKi for the input binder. Input: processed human chemokine PHC-1 (HCC-1[9-74]) (ligand, Purified from human hemofiltrate or made by tryptic digestion of HCC-1 (1-74)) GPYHPSECCFTYTTYKIPRQRIMDYYETNSQCSKPGIVFITKRGHSVCTNPSDKWVQDYIKDMKEN
[reply] 8.57
